Molecular target: human cloned CHRM2 receptor (Homo sapiens, UniProt P08172)
Construct: expressed in transfected cells; host or cells: CHO-K1 (M2_CHO)
Sequence (P08172 1-466): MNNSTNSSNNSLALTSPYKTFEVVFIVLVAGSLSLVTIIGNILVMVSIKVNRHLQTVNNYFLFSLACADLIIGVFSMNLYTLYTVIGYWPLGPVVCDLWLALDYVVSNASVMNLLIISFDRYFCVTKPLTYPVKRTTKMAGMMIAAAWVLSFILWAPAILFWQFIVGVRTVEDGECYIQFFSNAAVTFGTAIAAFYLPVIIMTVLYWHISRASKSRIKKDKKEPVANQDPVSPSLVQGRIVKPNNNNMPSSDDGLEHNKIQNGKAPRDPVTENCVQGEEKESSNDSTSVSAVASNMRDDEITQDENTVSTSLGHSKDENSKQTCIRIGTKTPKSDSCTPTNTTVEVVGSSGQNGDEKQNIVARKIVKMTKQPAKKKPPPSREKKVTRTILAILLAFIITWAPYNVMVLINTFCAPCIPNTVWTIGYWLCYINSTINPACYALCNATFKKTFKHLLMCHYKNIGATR
Assay: CHRM2 Ca++ Flux Assay (M2_CHO cells, agonist mode)
Format: cell-based
Conditions: Percent Activity (PA) measured to EC100 of Carbachol; M2 CHO cells; read-out: M2 FDSS PA %
Procedure: The above examples were characterized by measuring the intracellular mobilization of Ca^++ ions caused by signaling events mediated by the receptor. […] Prior to the day of the assay, stable M2 CHO cells were thawed and plated on Greiner 384 well TC treated plate at a density of 12K cells/well and kept overnight in a humidified atmosphere (5% CO2) at 37° C. […] The Percent Activity (PA) was measured to EC100 of Carbachol. […]
property_label: Emax (%)

Known Emax results, listed for orientation:
{"compound_structure_string": "Fc1ccc(OC2CCOCC2)c(C2CCN([C@@H]3COC4(C3)CN(c3ncon3)C4)CC2)c1", "Emax, %": 18}
{"compound_structure_string": "Fc1cc(OCC2(F)COC2)c(C2CCN([C@@H]3COC4(C3)CN(c3ncco3)C4)CC2)cc1F", "Emax, %": 28}
{"compound_structure_string": "CC(C)(O)COc1ccccc1C1CCN([C@@H]2COC3(C2)CN(c2ncns2)C3)CC1", "Emax, %": 0}
{"compound_structure_string": "Fc1ccc(OC2CC3(COC3)C2)c(C2CCN([C@@H]3COC4(C3)CN(c3ncon3)C4)CC2)c1", "Emax, %": 18}

1: CC(C)(O)COc1ccc(F)cc1C1CCN([C@@H]2COC3(C2)CN(c2nncs2)C3)CC1
2: Fc1cc(O[C@@H]2CCOC2)c(C2CCN([C@@H]3COC4(C3)CN(c3nnco3)C4)CC2)cc1F
Input: Smaller Emax value? Options are 1 and 2 Pick one; state its label.
Output: 1

----------
Target: human cloned CHRM2 receptor (Homo sapiens)
Construct: expressed in transfected cells; host or cells: CHO-K1 (M2_CHO)
Assay: CHRM2 Ca++ Flux Assay (M2_CHO cells, agonist mode)
Type: cell-based
Details: M2 CHO cells, agonist mode; geometric mean if tested more than once; read-out: M2 FDSS EC50
property_label: EC50 (µM)

Known EC50 results, listed for orientation:
{"molecule": "Cc1nnc(COc2ccc(F)cc2C2CCN([C@@H]3COC4(C3)CN(c3nnco3)C4)CC2)o1 [Example 2F]", "EC50 (µM)": 0.113}
{"molecule": "OC[C@H]1C[C@H](Oc2ccc(F)cc2C2CCN([C@@H]3COC4(C3)CN(c3nnco3)C4)CC2)C1 (single isomer, unassigned) [Example 2HH]", "EC50 (µM)": 6.57}
{"molecule": "c1ccc(C2CCN([C@@H]3COC4(C3)CN(c3nnco3)C4)CC2)c(-c2ncco2)c1 [Example 1X]", "EC50 (µM)": 2.48}
{"molecule": "c1ccc(C2CCN([C@@H]3COC4(C3)CN(c3ncco3)C4)CC2)c(C2CCOCC2)c1 [Example 4V]", "EC50 (µM)": 10.7}
{"molecule": "CC(C)(O)[C@H]1C[C@H](Oc2ccc(F)cc2C2CCN([C@@H]3COC4(C3)CN(c3nnco3)C4)CC2)C1 (single isomer, unassigned) [Example 2W]", "EC50 (µM)": 3.08}

a: Fc1ccc(OCC2COC2)c(C2CCN([C@@H]3COC4(C3)CN(c3nnco3)C4)CC2)c1 [Example 2H]
b: Fc1ccc(OC2CC3(COC3)C2)c(C2CCN([C@@H]3COC4(C3)CN(c3nncs3)C4)CC2)c1 [Example 5W]
Input: Could you please tell me which of these two has the higher EC50: a or b ? Pick one; state its label.
Output: b
(b: 20.7 µM, a: 0.309 µM)
